- Species: Rattus norvegicus
- measurement notes: DrugMatrix - Regimen: Daily Repeat
- Type: toxicity, organism-based, Sprague-Dawley
- Parameters: regimen Daily Repeat, gender Male, age 6-8 weeks
- experimental setup: in vivo, po, 1500 mg/kg, 72 h, tissue Blood, route oral GAVAGE, dose level High, time 3 day, vehicle .5 % CMC
Reported ABSOLUTE LYMPHOCYTE values are given for each entry in this list.

Worked cases, answers included:
| molecule | ABSOLUTE LYMPHOCYTE |
| --- | --- |
| Cc1cc(=O)n(-c2ccccc2)n1C [ANTIPYRINE] | 14551 CELLS/uL |
| O=C(N[C@H](CO)[C@H](O)c1ccc([N+](=O)[O-])cc1)C(Cl)Cl | 14694 CELLS/uL |
| NC(=O)c1cnccn1 [PYRAZINAMIDE] | 8872.33 CELLS/uL |
| Cc1ccc(S(=O)(=O)NC(=O)NN2CC3CCCC3C2)cc1 (configuration not stated) [GLICLAZIDE] | 14884.33 CELLS/uL |

Given the molecule C[C@]1(Cn2ccnn2)[C@H](C(=O)O)N2C(=O)C[C@H]2S1(=O)=O , what is its reported ABSOLUTE LYMPHOCYTE? 12544 CELLS/uL

Given the molecule CNC(=C[N+](=O)[O-])NCCSCc1ccc(CN(C)C)o1 , what is its reported ABSOLUTE LYMPHOCYTE? 15225.67 CELLS/uL

Given the molecule CO[C@H]1/C=C/O[C@@]2(C)Oc3c(C)c(O)c4c(c3C2=O)C2=NC3(CCN(CC(C)C)CC3)NC2=C(NC(=O)/C(C)=C\C=C\[C@H](C)[C@H](O)[C@@H](C)[C@@H](O)[C@@H](C)[C@H](OC(C)=O)[C@@H]1C)C4=O , what is its reported ABSOLUTE LYMPHOCYTE? 11965.67 CELLS/uL

* * *

- Species on record: Rattus norvegicus
- measurement notes: DrugMatrix - Regimen: Daily Repeat
- Type: toxicity, organism-based, Sprague-Dawley
- Design: regimen Daily Repeat, gender Male, age 6-8 weeks
- experimental setup: in vivo, po, 900 mg/kg, […], tissue Blood, route oral GAVAGE, dose level High, time 14 day
measurement name: ABSOLUTE MONOCYTE

Given the molecule Clc1ccc(Cl)cc1 , what is its reported ABSOLUTE MONOCYTE? 320 cells/µL

* * *

Reported CARBON DIOXIDE values are given for each entry in this list.
- Organism: Rattus norvegicus
- measurement notes: DrugMatrix - Regimen: Daily Repeat
- Assay type: toxicity, organism-based, Sprague-Dawley
- Parameters: regimen Daily Repeat, gender Male, age 6-8 weeks
- experimental setup: in vivo, po, 1500 mg/kg, 120 h, tissue Plasma, route oral GAVAGE, dose level High, time 5 day, vehicle .5 % CMC

| compound | CARBON DIOXIDE |
| --- | --- |
| O=C(N[C@H](CO)[C@H](O)c1ccc([N+](=O)[O-])cc1)C(Cl)Cl [CHLORAMPHENICOL] | 35 mmol/L |

# input for lookup
Given the compound NC(=O)c1cnccn1 [PYRAZINAMIDE] , what is its reported CARBON DIOXIDE? 25.33 mmol/L

* * *

- Species: Rattus norvegicus
- measurement notes: DrugMatrix - Regimen: Daily Repeat
- Assay type: toxicity, organism-based, Sprague-Dawley
- Design: regimen Daily Repeat, gender Male, age 6-8 weeks
- experimental setup: in vivo, po, 10 mg/kg, 120 h, tissue Plasma, route oral GAVAGE, dose level Low, time 5 day, […]
measurement name: GLUCOSE (mg/dL)
All answers are understood in mg/dL, so give the number only.

Given the compound COCCOC(=O)C1=C(C)NC(C)=C(C(=O)OC(C)C)C1c1cccc([N+](=O)[O-])c1 (centres undefined) , what is its reported GLUCOSE? 145.33
